Items are presented alongside their recorded log10 of CC50.
Test system: HEK293
Assay: cells
Type: functional, Homo sapiens, ATCC CRL1573
Conditions: Homo sapiens, ATCC CRL1573, HEK293; ASSAY_TEST Inhibition of Cell Viability; detection method Resazurin; Fluorescence (ex560/em590); MEDIA DMEM with 10% FBS; plate type 384well; TC; CORNING #3712; time 18 hr; read-out: CC50
Parameter value (number): base-10 log of CC50 in µg/mL.

Please review the entries below; each comes with its answer.
>  <Compound String>
COc1cccc(/C=C/c2ccc(C(=O)Nc3cc(C(=O)Nc4cc(C(=O)NCCCN(C)C)n(C)c4)n(C)c3)cc2)c1.O=C(O)C(F)(F)F

>  <Result>
1.06

$$$$
>  <Compound String>
CN(C)CCNC(=O)c1cc(NC(=O)c2cc(NC(=O)c3ccc(/C=C/c4ccc(N(C)C)cc4)nc3)cn2C)cn1C.O=C(O)C(F)(F)F.O=C(O)C(F)(F)F

>  <Result>
0.05

$$$$
>  <Compound String>
COCCOC1CCN(C(=O)c2cc(NC(=O)c3cc(NC(=O)c4ccc(/C=C/c5ccc(OC)cc5)nc4)cn3C)cn2C)CC1.O=S(=O)(O)O

>  <Result>
1.19

$$$$
>  <Compound String>
Cn1cc(NC(=O)c2cc(NC(=O)c3ccc(/C=C/c4cnc5ccccc5c4)cc3)cn2C)cc1C(=O)NCCC(=N)N.O=C(O)C(F)(F)F.O=C(O)C(F)(F)F

>  <Result>
0.82

$$$$
>  <Compound String>
Cn1cc(NC(=O)c2cc(NC(=O)c3ccc(/C=C/c4ccc5ccccc5n4)cc3)cn2C)cc1C(=O)NCCN1CCOCC1.O=C(O)C(F)(F)F

>  <Result>
0.29

$$$$

Next:
The observed log10 of CC50 for `COCCOC1CCN(CCNC(=O)c2cc(NC(=O)c3cc(NC(=O)c4ccc(/C=C/c5cnc6ccccc6c5)cc4)cn3C)cn2C)CC1` when tested with HEK293 stands at 0.29

---

Tested on: Klebsiella pneumoniae
Assay: microbe, parasite or virus in culture
Conditions: ATCC 700603, 18 h, ASSAY_TEST Inhibition of Bacterial Growth, detection method Absorption (OD600), MEDIA CAMHB, plate type 384well, NBS, CORNING #3640
Description: Antibacterial activity against Klebsiella pneumoniae MDR ATCC 70063 (CO-ADD:GN_003); MIC in CAMBH media using NBS plates, by OD(600)
Items are presented alongside their recorded MIC.

>  <Compound String>
CC(=N)Nc1cc(C(=O)Nc2cc(C(=O)Nc3cc(C(=O)NCCCN(C)C)n(C)c3)n(C)c2)n(C)c1.O=C(O)C(F)(F)F.O=C(O)C(F)(F)F

>  <Assay Endpoint>
MIC

>  <Result>
> 32 µg/mL

$$$$
>  <Compound String>
CN(C)c1ccc(/C=C/c2ccc(C(=O)Nc3cc(C(=O)Nc4cc(C(=O)NCCN5CCOCC5)n(C)c4)n(C)c3)cn2)cc1.O=C(O)C(F)(F)F

>  <Assay Endpoint>
MIC

>  <Result>
> 32 µg/mL

$$$$

Next:
The observed MIC for `COc1ccc(/C=C/c2ccc(C(=O)Nc3cc(C(=O)Nc4cc(C(=O)NCCN5CCCCC5)n(CCCc5ccccc5)c4)n(C)c3)cn2)cc1.O=C(O)C(F)(F)F.O=C(O)C(F)(F)F` when tested with Klebsiella pneumoniae stands at > 32 µg/mL

---

Test system: Acinetobacter baumannii
Assay: microbe, parasite or virus in culture
Details: ATCC 19606, 18 h, ASSAY_TEST Inhibition of Bacterial Growth, detection method Absorption (OD600), MEDIA CAMHB, plate type 384well, NBS, CORNING #3640
Description: Antibacterial activity against Acinetobacter baumannii ATCC 19606 (CO-ADD:GN_034); MIC in CAMBH media using NBS plates, by OD600
Items are presented alongside their recorded MIC.

`COc1ccc(/C=C/c2ccc(C(=O)Nc3cc(C(=O)Nc4nc(C(=O)NCCN5CCOCC5)c(C5CCCCC5)s4)n(C)c3)cn2)cc1.O=C(O)C(F)(F)F.O=C(O)C(F)(F)F` yielded MIC of > 32 µM

`Cn1cc(NC(=O)c2cc(NC(=O)c3ccc(/C=C/c4ccc5nonc5c4)cc3)cn2C)cc1C(=O)NCCN1CCOCC1.O=C(O)C(F)(F)F` yielded MIC of > 32 µg/mL

`CC(=N)Nc1cc(C(=O)Nc2cc(C(=O)Nc3cc(C(=O)NCCCN(C)C)n(C)c3)n(C)c2)n(C)c1.O=C(O)C(F)(F)F.O=C(O)C(F)(F)F` yielded MIC of > 32 µg/mL

---

Tested on: Staphylococcus aureus
Assay: microbe, parasite or virus in culture
Conditions: ATCC 43300, 18 h, ASSAY_TEST Inhibition of Bacterial Growth, detection method Absorption (OD600), MEDIA CAMHB, plate type 384well, NBS, CORNING #3640
Description: Antibacterial activity against Staphylococcus aureus MRSA ATCC 43300 (CO-ADD:GP_020); MIC in CAMBH media, using NBS plates, by OD(600)
Assay Endpoint: MIC

Please review the entries below; each comes with its answer.
>  <Compound String>
Cn1cc(NC(=O)c2cc(NC(=O)c3cc(NC(=O)c4ccc(Cl)cc4Cl)cn3C)cn2C)cc1C(=O)NCCCN1CCOCC1.O=C(O)C(F)(F)F

>  <Assay Endpoint>
MIC

>  <Result>
> 32 µg/mL

$$$$
>  <Compound String>
COc1ccc(/C=C/c2ccc(C(=O)Nc3cc(C(=O)Nc4cc(C(=O)NCCN5CCOCC5)n(C)c4)n(C)c3)cn2)cc1.O=C(O)C(F)(F)F.O=C(O)C(F)(F)F

>  <Assay Endpoint>
MIC

>  <Result>
> 32 µg/mL

$$$$
>  <Compound String>
Cn1cc(NC(=O)c2cc(NC(=O)c3ccc(/C=C/c4ccc(F)cc4)cc3)cn2C)cc1C(=O)NCCN1CCOCC1.O=C(O)C(F)(F)F

>  <Assay Endpoint>
MIC

>  <Result>
> 32 µg/mL

$$$$
>  <Compound String>
COc1cccc(/C=C/c2ccc(C(=O)Nc3cc(C(=O)Nc4cc(C(=O)NCCN5CCC(O)CC5)n(C)c4)n(C)c3)cc2)c1.O=C(O)C(F)(F)F

>  <Assay Endpoint>
MIC

>  <Result>
16 µg/mL

$$$$
>  <Compound String>
CN(C)CCCNC(=O)c1cc(NC(=O)c2cc(NC(=O)c3cc(NC(=N)c4cc5ccccc5cn4)cn3C)cn2C)cn1C.O=C(O)C(F)(F)F.O=C(O)C(F)(F)F

>  <Assay Endpoint>
MIC

>  <Result>
> 32 µg/mL

$$$$

Next:
`CC(=O)/C=C/c1ccc(C(=O)Nc2cc(C(=O)Nc3cc(C(=O)NCCN4CCOCC4)n(C)c3)n(C)c2)cc1.O=C(O)C(F)(F)F` yielded MIC of > 32 µg/mL

---

Tested on: Klebsiella pneumoniae
Test: microbe, parasite or virus in culture
Settings: ATCC 700603, 18 h, ASSAY_TEST Inhibition of Bacterial Growth, detection method Absorption (OD600), MEDIA CAMHB, plate type 384well, NBS, CORNING #3640
Assay Endpoint: MIC

>  <Compound String>
Cn1cc(NC(=O)c2ccc(/C=C/c3cnc4ccccc4c3)cc2)cc1C(=O)Nc1nc(C(=O)NCCN2CCOCC2)c(CCc2ccccc2)s1.O=C(O)C(F)(F)F.O=C(O)C(F)(F)F

>  <MIC>
> 32 µg/mL

$$$$

`COc1cccc(/C=C/c2ccc(C(=O)Nc3cc(C(=O)Nc4cc(C(=O)NCCN5CCOCC5)n(CCCc5cn(CCc6ccccc6)nn5)c4)n(C)c3)cc2)c1.O=C(O)C(F)(F)F` yielded MIC of > 32 µg/mL

`COc1cccc(C(=N)Nc2cc(C(=O)Nc3cc(C(=O)Nc4cc(C(=O)NCCCN(C)C)n(CCC(C)C)c4)n(C)c3)n(C)c2)c1` yielded MIC of > 32 µg/mL

`Cn1cc(NC(=O)c2ccc(/C=C/c3cnc4ccccc4c3)cc2)cc1C(=O)NCCN1CCOCC1.O=C(O)C(F)(F)F.O=C(O)C(F)(F)F` yielded MIC of > 32 µg/mL

`COc1cccc(/C=C/c2ccc(C(=O)Nc3cc(C(=O)Nc4cc(C(=O)NCCN5CCOCC5)n(C(C)C)c4)n(C)c3)cc2)c1.O=C(O)C(F)(F)F` yielded MIC of > 32 µg/mL

`COC1CCN(CCNC(=O)c2cc(NC(=O)c3cc(NC(=O)c4ccc(/C=C/c5cnc6ccccc6c5)cc4)cn3C)cn2C)CC1` yielded MIC of > 32 µg/mL

---

Items are presented alongside their recorded CC50.
System: HEK293
Test: cells
Format: functional, Homo sapiens, ATCC CRL1573
Settings: Homo sapiens, ATCC CRL1573, HEK293; ASSAY_TEST Inhibition of Cell Viability; detection method Resazurin; Fluorescence (ex560/em590); MEDIA DMEM with 10% FBS; plate type 384well; TC; CORNING #3712; time 18 hr; read-out: CC50
The answer is to be given in mg/L; state only the numeric part.

>  <Compound String>
CC(C)CCc1sc(NC(=O)c2cc(NC(=O)c3cc(NC(=N)N)cn3C)cn2C)nc1C(=O)NCCCN(C)C.O=C(O)C(F)(F)F.O=C(O)C(F)(F)F

>  <Target System>
HEK293

>  <Reading Unit>
mg/L

>  <CC50>
19.9

$$$$

`Cn1cc(NC(=O)c2cc(NC(=O)c3ccc(/C=C/c4cnc5ccccc5c4)cc3)cn2C)cc1C(=O)NCCN1CCCC1=O.O=C(O)C(F)(F)F` yielded CC50 of 12.7
